Quick reference for Chemotaxis IC50 (M) +HSA among some binders
# assay-system: human CXCR4 (human, UniProt P61073 1-352)
# Sequence (P61073 whole entry): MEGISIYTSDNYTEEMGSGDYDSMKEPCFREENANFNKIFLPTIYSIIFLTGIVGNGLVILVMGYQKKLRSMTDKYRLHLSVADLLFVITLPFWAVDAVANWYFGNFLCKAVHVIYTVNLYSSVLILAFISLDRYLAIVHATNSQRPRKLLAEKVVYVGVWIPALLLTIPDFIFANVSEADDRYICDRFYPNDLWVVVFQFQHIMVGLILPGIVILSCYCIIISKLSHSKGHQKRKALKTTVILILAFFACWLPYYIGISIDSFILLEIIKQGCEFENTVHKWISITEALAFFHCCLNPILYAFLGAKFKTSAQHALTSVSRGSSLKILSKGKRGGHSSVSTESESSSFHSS
# protocol-text: cell-based or functional assay
measure-name: Chemotaxis IC50 (M) +HSA

- binder: "4CXCR010E12 (VHH, also called P4CXCR10E12; not shown: C-terminal c-myc tag and His6 tag) VHH: EVQLVESGGGLVQAGGSLRLSCAVSGRTFTSYDMAWFRQAPGKERESVAAIRWTGSSTYYADSVKGRFTISRDNAKSTVYLQMNSLKPEDTAVYYCAARDTGRYRSRTYDYWGQGTQVTVSS"
  quantitative-readout: "1.12e-09"
- binder: "4CXCR281E10 (VHH, Family member of 238D4 (family 17); also called P4CXCR281E10; not shown: C-terminal c-myc tag and His6 tag) VHH: EVQLVESGGGLVQAGGSLRLSCKASGGTFNNYAMGWFRRAPGKEREFVAAITRSGVRSGVSAIYGDSVKDRFTISRDNVKNTLYLQMNTLKPEDTAVYTCAASAIGSGALRRFEYDYSGQGTQVTVSS"
  quantitative-readout: "2.2e-09"
